# Tested on: P12-Ichikawa
# method: cell viability relative to DMSO control; higher = less cytotoxic
# run-conditions: RPMI 5 mM glucose + 10% dialyzed FBS; 48 h; 15.4 µM
Form field: cell viability (one value per entry).
measured-parameter: cell viability (%)

* C=CC1=C(C(=O)O)N2C(=O)[C@@H](NC(=O)/C(=N\O)c3csc(N)n3)[C@H]2SC1 | 123
* CC(=O)N1CCN(c2ccc(OC[C@H]3CO[C@](Cn4ccnc4)(c4ccc(Cl)cc4Cl)O3)cc2)CC1 | 96.7
* CC(=O)C\1=C(/C)C2=CN=C(NC3=CC=C(C=N3)N4CCNCC4)N=C2N(C5CCCC5)C1=O | 73
* COC[C@@H](NC(C)=O)C(=O)NCc1ccccc1 | 109
* CC1(C)CCC(=C(CN2CCN(CC2)C3=CC=C(C=C3)C(=O)N[S+]([O-])(=O)C4=CC(=C(N[C@H](CCN5CCOCC5)CSC6=CC=CC=C6)C=C4)[S+]([O-])(=O)C(F)(F)F)\C1)/C7=CC=C(Cl)C=C7 | 6.25
* Oc1ccc(/C=C/c2cc(O)cc(O)c2)cc1 | 84.5
* CN(C/C=C/C#CC(C)(C)C)Cc1cccc2ccccc12 | 91.3
* CCCCNc1cc(C(=O)O)cc([S+](N)(=O)[O-])c1Oc1ccccc1 | 124
* CC1(C)OC2CC3C4CC(F)C/5=C/C(=O)/C=C\C5(C)C4C(O)CC3(C)[C@@]2(O1)C(=O)CO (some centres not stated) | 45.9
* CC[C@H]1/C=C\C=C/C[C@@H](C)[C@H](O)[C@@](C)(O)C(=O)[C@@H](C)[C@H](O)[C@@H](C)C(=O)[C@@H](C)[C@H](O)[C@@H](C)/C=C/C(=O)O[C@@H]2[C@H](C)[C@H](CC1)O[C@]1(CC[C@H](C)[C@H](C[C@@H](C)O)O1)[C@H]2C | 41.8
* OC(=O)\C1=C\N(C2=CC=C(F)C=C2)C3=C(C=C(F)C(=C3)N4CCNCC4)C1=O | 91.5
* COc1cc(Nc2ncc(F)c(Nc3ccc4c(n3)NC(=O)C(C)(C)O4)n2)cc(OC)c1OC | 5.87
* C[C@@H]1CN[C@H]2[C@@H](C)[C@@]\3(CC[C@H]\4[C@@H]5C/C=C6/C[C@@H](O)CC[C@]6(C)[C@H]5CC4=C3C)O[C@@H]2C1 | 101
* CC(=O)N1CCN(c2ccc(OCc3nn(C)c(C)c3-c3cccc4c(CCCOc5cccc6ccccc56)c(C(=O)O)n(Cc5cccnc5)c34)cc2)CC1 | 91.1
* CCOc1cc(N)c(Cl)cc1C(=O)NCC1CN(Cc2ccc(F)cc2)CCO1 (configuration not stated) | 105
* Cn1cc(-c2ccc3nnc(C(F)(F)c4ccc5ncccc5c4)n3n2)cn1 | 102
* Cc1nccn1CC1CCc2c(c3ccccc3n2C)C1=O (configuration not stated) | 114
* Oc1ccc(C2CCN(c3ccnc4ccccc34)CC2)cc1O | 45.8
* CN1\C(=C(\O)C2=C(C=CS2)[S+]1([O-])=O)C(=O)NC3=CC=CC=N3 | 105
* Cc1cccc(C)c1OCC(=O)N[C@@H](Cc1ccccc1)[C@@H](O)C[C@H](Cc1ccccc1)NC(=O)[C@H](C(C)C)N1CCCNC1=O | 83.9
* CC(=O)CC(C1=CC=CC=C1)C/2=C(O)/C3=CC=CC=C3OC2=O (configuration not stated) | 132
* CN1CCC(CC1)COC2=CN=C(N=C2)C3=CC(=CC=C3)CN4/N=C(\C=C/C4=O)C5=CC(=CC=C5)C#N | 121
* CC1(C)C(=O)N(CCN2CCC(C(=O)c3ccc(F)cc3)CC2)c2ccccc21 | 97.9
* O=C(O)c1ccc(-n2nc(-c3ccccc3O)nc2-c2ccccc2O)cc1 | 55.7
* CC(C)[C@@H](C[S+](=O)([O-])C(C)C)N1C(=O)[C@@](C)(CC(=O)O)C[C@H](c2cccc(Cl)c2)[C@H]1c1ccc(Cl)cc1 | 18.1
* CN(C)CCc1c[nH]c2ccc(C[C@H]3COC(=O)N3)cc12 | 38.2
* C[S+](=O)([O-])N(Cc1ccco1)CC(O)Cn1c2ccccc2c2ccccc21 (configuration not stated) | 73.4
* NC1=NC=C(C=C1)C2=CC=C3N=CC\4=C(N(C(=O)\C=C4)C5=CC(=CC=C5)C(F)(F)F)C3=C2 | 7.89
* CC(=O)Nc1ccc([C@H](C)C(=O)Nc2ncc(C(C)C)s2)cc1 | 22.8
* c1cc(CN2CCCNCCNCCCNCC2)ccc1CN1CCCNCCNCCCNCC1 | 96.5
* CCN(CC)C(=S)SSC(=S)N(CC)CC | 3.98
* C1CCC(C(CC2CCCCN2)C2CCCCC2)CC1 (configuration not stated) | 115
